- TARGET OR TEST SYSTEM: S-adenosylmethionine synthase isoform type-2 (Homo sapiens, UniProt P31153)
- ASSAY NAME: Inhibition of recombinant human MAT2A expressed in baculovirus infected Sf9 cells assessed as S-adenosyl methionine production using L-methionine as substrate incubated for 60 mins followed by substrate addition and measured after 60 mins relative to control
- Set-up: concentration or dose not given beside the values
- Sequence (P31153 whole entry, looked up, canonical isoform): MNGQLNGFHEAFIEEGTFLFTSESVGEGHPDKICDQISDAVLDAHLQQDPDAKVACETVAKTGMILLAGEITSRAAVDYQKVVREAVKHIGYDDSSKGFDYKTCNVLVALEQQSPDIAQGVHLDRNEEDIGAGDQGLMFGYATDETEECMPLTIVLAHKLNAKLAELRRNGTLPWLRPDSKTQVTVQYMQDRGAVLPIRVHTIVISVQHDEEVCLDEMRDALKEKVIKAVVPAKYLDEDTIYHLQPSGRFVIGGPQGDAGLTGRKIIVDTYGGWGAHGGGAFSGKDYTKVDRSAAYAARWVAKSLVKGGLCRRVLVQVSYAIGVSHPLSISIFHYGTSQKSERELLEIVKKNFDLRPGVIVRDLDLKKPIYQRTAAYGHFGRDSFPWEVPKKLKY
# cutoff 90% applies to inhibition; >= gives Yes, < gives No

Cc1[nH]c2c(N3CCCCC3)c(-c3ccccc3)nn2c(=O)c1-c1ccc2[nH]c(N)nc2c1 ... Yes

Say whether `Cc1cc(=O)n2nc(-c3nccs3)c(-c3ccccc3)c2[nH]1` shows inhibition of 90% or more.
No

Say whether `Cc1c(-c2ccc(O)cc2)c(=O)n2nc(-c3ccccc3)c(N3CCCCC3)c2n1C` shows inhibition of 90% or more.
No

Say whether `Cc1[nH]c2c(N3CCCCC3)c(-c3ccccc3)nn2c(=O)c1-c1cn[nH]c1` shows inhibition of 90% or more.
Yes

Say whether `Cc1cc(=O)n2nc(-c3ccccc3)c(C3=CCCC3)c2[nH]1` shows inhibition of 90% or more.
No

* * *

- TARGET OR TEST SYSTEM: S-adenosylmethionine synthase isoform type-2 (Homo sapiens)
- ASSAY NAME: Inhibition of recombinant human MAT2A expressed in baculovirus infected Sf9 cells assessed as S-adenosyl methionine production using L-methionine as substrate incubated for 60 mins followed by substrate addition and measured after 60 mins
- CONDITION SET: read-out: IC50
- Sequence (P31153 whole entry, canonical isoform): as the sequence (P31153 whole entry, looked up, canonical isoform) above
QUANTITY: IC50 (nM)
Give a bare numeral; the unit nM is implied.

Below are worked cases with known answers.
COc1ccc(-c2c(Nc3ccon3)[nH]c3c(C4=CCCCC4)c(-c4ccccc4)nn3c2=O)cc1 ... 10
Cc1[nH]c2c(-c3ccccc3)c(-c3ccccc3)nn2c(=O)c1-c1ccc(O)cc1 ... 33
Cc1cc(=O)n2nc(-c3ccco3)c(-c3ccccc3)c2[nH]1 ... 1500
Cc1cc(=O)n2nc(-c3cccc(F)c3)c(-c3ccccc3)c2[nH]1 ... 1900
Cc1c(-c2ccc(O)cc2)c(=O)n2nc(-c3ccccc3)c(N3CCCCC3)c2n1C ... 102

Fill in the blank: the reported IC50 of `Cc1cc(=O)n2nc(-c3ccccc3)c(C3CCCC3)c2[nH]1` is ____.
680

* * *

- TARGET OR TEST SYSTEM: S-adenosylmethionine synthase isoform type-2 (Homo sapiens, UniProt P31153)
- ASSAY NAME: Inhibition of recombinant human MAT2A expressed in baculovirus infected Sf9 cells assessed as S-adenosyl methionine production using L-methionine as substrate incubated for 60 mins followed by substrate addition and measured after 60 mins
- CONDITION SET: read-out: IC50
Reported IC50 is given for each of the following compounds.
Give a bare numeral; the unit nM is implied.

Below are worked cases with known answers.
COc1ccc(-c2c(Nc3ccccn3)[nH]c3c(-c4ccccc4)c(-c4ccccc4)nn3c2=O)cc1 ... 7
CCOC(=O)c1nnc(Nc2[nH]c3c(-c4ccccc4)c(-c4ccccc4)nn3c(=O)c2-c2ccc3ncccc3c2)o1 ... 4
Cc1[nH]c2c(C3=CCCCC3)c(-c3ccccc3)nn2c(=O)c1-c1ccc2ncccc2c1 ... 25

Fill in the blank: the reported IC50 of `Cc1[nH]c2c(N3CCCCC3)c(-c3ccccc3)nn2c(=O)c1-c1ccc2[nH]c(N)nc2c1` is ____.
83

Fill in the blank: the reported IC50 of `Cc1[nH]c2c(N3CCCCC3)c(-c3ccccc3)nn2c(=O)c1-c1ccc2c(c1)OCO2` is ____.
8

* * *

- ASSAY NAME: Solubility of compound at pH 7.4
- Assay type: physicochemical
- CONDITION SET: buffer
Reported solubility is given for each of the following compounds.
Give a bare numeral; the unit µM is implied.

Cc1cc(=O)n2nc(-c3ccccc3)c(N3CCCCC3)c2[nH]1 ... 13

Fill in the blank: the reported solubility of `Cc1[nH]c2c(-c3ccccc3)c(-c3ccccc3)nn2c(=O)c1-c1ccc2ncccc2c1` is ____.
15

* * *

- ASSAY NAME: Cmax in MTAP-null KP4 cells xenografted mouse plasma treated po twice daily
- Assay type: ADME, organism-based
- Set-up: route oral
QUANTITY: Cmax (µg/mL)
Give a bare numeral; the unit µg/mL is implied.

Fill in the blank: the reported Cmax of `Cc1[nH]c2c(-c3ccccc3)c(-c3ccccc3)nn2c(=O)c1-c1ccc2ncccc2c1` is ____.
179

* * *

Reported fraction unbound is given for each of the following molecules.
- ASSAY NAME: Protein binding in human plasma assessed as unbound fraction
- Assay type: ADME, cell-free

COc1ccc(-c2c(Nc3ccccn3)[nH]c3c(C4=CCCCC4)c(-c4ccccc4)nn3c2=O)cc1 ... 0.015
Cc1c(-c2ccc3ncccc3c2)c(=O)n2nc(-c3ccccc3)c(-c3ccccc3)c2n1C ... 0.009

Fill in the blank: the reported fraction unbound of `Cc1[nH]c2c(N3CCCCC3)c(-c3ccccc3)nn2c(=O)c1-c1ccc(O)cc1` is ____.
0.0009

Fill in the blank: the reported fraction unbound of `Cc1[nH]c2c(-c3ccccc3)c(-c3ccccc3)nn2c(=O)c1-c1ccc2ncccc2c1` is ____.
0.0003

Fill in the blank: the reported fraction unbound of `Cc1c(-c2ccc(O)cc2)c(=O)n2nc(-c3ccccc3)c(N3CCCCC3)c2n1C` is ____.
0.0154

* * *

- ASSAY NAME: Protein binding in rat plasma assessed as unbound fraction
- Format: ADME, cell-free
QUANTITY: fraction unbound
Please give the numeric answer without any surrounding text.

Fill in the blank: the reported fraction unbound of `COc1ccc(-c2c(Nc3ccccn3)[nH]c3c(C4=CCCCC4)c(-c4ccccc4)nn3c2=O)cc1` is ____.
0.016

* * *

- TARGET OR TEST SYSTEM: Cytochrome P450 3A4 (Homo sapiens)
- Sequence (P08684 whole entry): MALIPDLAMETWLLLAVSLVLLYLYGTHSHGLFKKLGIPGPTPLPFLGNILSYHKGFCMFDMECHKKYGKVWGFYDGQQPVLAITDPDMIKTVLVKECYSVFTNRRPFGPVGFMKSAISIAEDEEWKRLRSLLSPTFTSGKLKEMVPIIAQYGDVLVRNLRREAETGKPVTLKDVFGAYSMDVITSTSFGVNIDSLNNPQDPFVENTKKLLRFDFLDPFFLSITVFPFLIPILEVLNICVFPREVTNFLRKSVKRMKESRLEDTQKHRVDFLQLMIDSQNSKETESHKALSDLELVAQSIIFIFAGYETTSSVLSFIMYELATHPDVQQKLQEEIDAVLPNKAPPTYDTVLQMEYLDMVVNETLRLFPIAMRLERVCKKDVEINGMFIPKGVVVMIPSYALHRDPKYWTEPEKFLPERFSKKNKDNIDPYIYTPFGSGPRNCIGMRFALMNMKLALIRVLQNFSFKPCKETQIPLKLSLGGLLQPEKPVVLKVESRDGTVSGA
QUANTITY: IC50

Fill in the blank: the reported IC50 of `COc1ccc(-c2c(Nc3ccccn3)[nH]c3c(C4=CCCCC4)c(-c4ccccc4)nn3c2=O)cc1` is ____.
> 10 µM

* * *

- TARGET OR TEST SYSTEM: PXR (NR1I2) (Homo sapiens)
- Sequence (O75469 whole entry): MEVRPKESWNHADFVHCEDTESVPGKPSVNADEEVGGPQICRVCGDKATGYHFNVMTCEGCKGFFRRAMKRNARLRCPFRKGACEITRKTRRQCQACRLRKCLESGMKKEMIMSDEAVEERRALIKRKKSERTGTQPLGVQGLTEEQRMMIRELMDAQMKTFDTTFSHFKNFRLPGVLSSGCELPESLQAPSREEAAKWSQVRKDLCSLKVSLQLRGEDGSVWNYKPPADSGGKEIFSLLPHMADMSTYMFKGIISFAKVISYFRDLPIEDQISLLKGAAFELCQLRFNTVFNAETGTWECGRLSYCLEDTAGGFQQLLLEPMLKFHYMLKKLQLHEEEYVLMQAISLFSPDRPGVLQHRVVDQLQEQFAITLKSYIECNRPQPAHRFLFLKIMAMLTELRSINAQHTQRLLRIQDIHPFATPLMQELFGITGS
- ASSAY NAME: Transactivation of PXR in human HepG2 cells relative to rifampicin
- Assay type: cell-based
- CONDITION SET: read-out: Activity
QUANTITY: Emax

Fill in the blank: the reported Emax of `COc1ccc(-c2c(Nc3ccccn3)[nH]c3c(C4=CCCCC4)c(-c4ccccc4)nn3c2=O)cc1` is ____.
22%

* * *

- ASSAY NAME: Cmax in MTAP-null KP4 cells xenografted mouse measured in tumor treated po twice daily
- Format: ADME, organism-based, Neoplasm
- Design: route oral
QUANTITY: Cmax (ng/g)
Give a bare numeral; the unit ng/g is implied.

Fill in the blank: the reported Cmax of `Cc1[nH]c2c(-c3ccccc3)c(-c3ccccc3)nn2c(=O)c1-c1ccc2ncccc2c1` is ____.
32300

* * *

- ASSAY NAME: Stability in human liver microsomes assessed as extraction ratio
- Format: ADME, Microsome
- CONDITION SET: read-out: ERH
hepatic extraction ratio vs 0.5: less than gives T; not less than gives F.

Worked set:
COc1ccc(-c2c(Nc3cc[nH]n3)[nH]c3c(C4=CCCCC4)c(-c4ccccc4)nn3c2=O)cc1 ... F
COc1ccc(-c2c(Nc3ccccn3)[nH]c3c(-c4ccccc4)c(-c4ccccc4)nn3c2=O)cc1 ... T
O=c1c(-c2ccc3ncccc3c2)c(Nc2cc[nH]n2)[nH]c2c(C3=CCCCC3)c(-c3ccccc3)nn12 ... F
Cc1[nH]c2c(N3CCCCC3)c(-c3ccccc3)nn2c(=O)c1-c1ccc2ncccc2c1 ... F
COc1ccc(-c2c(Nc3ccon3)[nH]c3c(C4=CCCCC4)c(-c4ccccc4)nn3c2=O)cc1 ... T

Just wondering, is hepatic extraction ratio of `Cc1[nH]c2c(N3CCCCC3)c(-c3ccccc3)nn2c(=O)c1-c1ccc2[nH]c(N)nc2c1` below 0.5?
F

Just wondering, is hepatic extraction ratio of `Cc1[nH]c2c(N3CCCCC3)c(-c3ccccc3)nn2c(=O)c1-c1ccc2c(c1)OCO2` below 0.5?
F

Just wondering, is hepatic extraction ratio of `Cc1[nH]c2c(-c3ccccc3)c(-c3ccccc3)nn2c(=O)c1-c1ccc(O)cc1` below 0.5?
F

Just wondering, is hepatic extraction ratio of `COc1ccc(-c2c(Nc3cc[nH]n3)[nH]c3c(-c4ccccc4)c(-c4ccccc4)nn3c2=O)cc1` below 0.5?
T

Just wondering, is hepatic extraction ratio of `O=c1c(-c2ccc(O)cc2)c(Nc2cc[nH]n2)[nH]c2c(-c3ccccc3)c(-c3ccccc3)nn12` below 0.5?
T

Just wondering, is hepatic extraction ratio of `Cc1[nH]c2c(C3CCCCC3)c(-c3ccccc3)nn2c(=O)c1-c1ccc2ncccc2c1` below 0.5?
F

Just wondering, is hepatic extraction ratio of `Cc1[nH]c2c(-c3ccccc3)c(-c3ccccc3)nn2c(=O)c1-c1ccc2ncccc2c1` below 0.5?
T

Just wondering, is hepatic extraction ratio of `CCOC(=O)c1nnc(Nc2[nH]c3c(-c4ccccc4)c(-c4ccccc4)nn3c(=O)c2-c2ccc3ncccc3c2)o1` below 0.5?
F
